- Test system: SW-620 colon
- experiment.summary: NCI tumour cell line growth inhibition, 48 h
Some molecules, each annotated with its measured TGI.
value.type: TGI

INSERT INTO results (molecule, value_type, assay_result) VALUES
  ('CC(=O)NC1C(OCC(=O)NCCNc2ccc([N+](=O)[O-])c3[nH]c4ccccc4c(=O)c23)C(O)C(CO)OC1(C)OCc1ccccc1 (centres undefined)', 'TGI', '> 100 µM'),
  ('O=NN(CCCl)C(=O)NC1CCC(CC(=O)O)CC1 (centres undefined)', 'TGI', '> 100 µM'),
  ('COC1(OC)c2occc2C(=N)c2ccc(=O)oc21', 'TGI', '> 100 µM'),
  ('CCc1ccc(Nc2cc(C)c3ccc(O)cc3n2)cc1', 'TGI', '20.2 µM'),
  ('COc1ccc(-c2oc3cc(-c4cc5oc(-c6ccc(OC)cc6)c(-c6ccc(OC)cc6)c5cc4OC)c(OC)cc3c2-c2ccc(OC)cc2)cc1', 'TGI', '> 100 µM'),
  ('CCOC(=O)c1c2c(n(-c3ccc(C)cc3)c1C)-c1ccccc1C(=O)C2(C(=O)OCC)C(=O)OCC', 'TGI', '> 100 µM'),
  ('C1CCC(N=C2N(C3CCCCC3)C(=NC3CCCCC3)N2C2CCCCC2)CC1', 'TGI', '> 100 µM'),
  ('Cc1nc2ccccc2c(=O)n1/N=C(\N=Nc1ccccc1Cl)c1ccccc1Cl', 'TGI', '> 100 µM'),
  ('C[C@H]1CC[C@@]2(OC1)O[C@H]1C[C@H]3[C@@H]4CC[C@@H]5C[C@@H](OC6OC(CO)C(O)C(O)C6OC6OC(CO)C(O)C(O)C6O)CC[C@]5(C)[C@H]4CC[C@]3(C)[C@H]1[C@@H]2C (some centres undefined)', 'TGI', '3.4 µM'),
  ('COC(=O)C1=C(C(=O)OC)C2(c3ccccc3)OC1(c1ccccc1)c1cc3ccccc3cc12', 'TGI', '3.51 µM'),
  ('C=CCC(CCC(C)=O)(C(=O)OCC)C(=O)OCC', 'TGI', '> 100 µM'),
  ('Cc1noc(NC(=O)Nc2ccccc2F)c1C#N', 'TGI', '> 100 µM'),
  ('COc1ccccc1CNCCN1C(=O)c2ccc3c4c(ccc(c24)C1=O)C(=O)N(CCNCc1ccccc1OC)C3=O', 'TGI', '0.591 µM'),
  ('CC(SC(=S)N1CCOCC1)C(=O)Nc1nnc(-c2ccc(Cl)cc2)o1 (centres undefined)', 'TGI', '> 100 µM'),
  ('[B]C(=O)NC(CC(C)C)C(=O)NCC(=O)NC1c2ccsc2C(=O)C1O (centres undefined) (tested in a mixture with another compound)', 'TGI', '> 100 µM'),
  ('CN(NC1=NCCO1)c1ccc2ccccc2c1', 'TGI', '> 100 µM'),
  ('O=C1NC(=O)C2C(=O)NC(=O)C1C2Cc1ccco1 (centres undefined)', 'TGI', '> 100 µM'),
  ('COC(=O)/C=C(\C(=O)OC)c1cc(C)c2cc(C(C)C)ccc(C)c1-2', 'TGI', '> 100 µM'),
  ('CCOC(=O)C1=C(NC)OCC1=O', 'TGI', '> 100 µM');

###

Some compounds, each annotated with its measured TGI.
- Tested on: SF-268 CNS
- experiment.summary: NCI tumour cell line growth inhibition, 48 h
value.type: TGI

INSERT INTO measurements (compound, system, value_type, assay_result) VALUES
  ('Cc1nc2ccccc2c(=O)n1/N=C(\N=Nc1ccccc1Cl)c1ccccc1Cl', 'SF-268 CNS', 'TGI', '> 100 µM'),
  ('CCN1CCC(O)(c2ccc([N+](=O)[O-])cc2)C(C(=O)c2ccc([N+](=O)[O-])cc2)C1 (stereo not given)', 'SF-268 CNS', 'TGI', '46 µM'),
  ('Cc1nc2c(sc3nc4c(cc32)CCC4)c(=O)o1', 'SF-268 CNS', 'TGI', '> 100 µM'),
  ('CC1(C)O[C@@H]2[C@@H](COC(C)(C)O[C@H]2C2SCCCS2)O1', 'SF-268 CNS', 'TGI', '> 100 µM'),
  ('CCCCS(=O)c1sc2nc(-c3cccs3)cc(-c3ccccc3)c2c1N (stereo not given)', 'SF-268 CNS', 'TGI', '> 100 µM'),
  ('O=C(c1ccc(Cl)cc1)C1OC12C(=O)Nc1c(Cl)cc(Cl)cc12 (stereo not given)', 'SF-268 CNS', 'TGI', '> 100 µM'),
  ('Cc1ccc(S(=O)(=O)N(CC(O)COc2ccccc2)c2c(F)cccc2F)cc1 (stereo not given)', 'SF-268 CNS', 'TGI', '37.4 µM'),
  ('CC(=O)Oc1ccc(C2=Cc3ccc(OC(C)=O)cc3OC2C)cc1 (stereo not given)', 'SF-268 CNS', 'TGI', '30.6 µM'),
  ('COc1ccc(-c2c(C3=NCCCN3)nnn2-c2ccccc2)cc1', 'SF-268 CNS', 'TGI', '> 100 µM'),
  ('CCO/C=C1\SC(=S)N(c2ccc(OCC)cc2)C1=O', 'SF-268 CNS', 'TGI', '> 100 µM');

###

- System: UO-31 renal
- experiment.summary: NCI tumour cell line growth inhibition, 48 h
value.type: TGI (µM)

INSERT INTO measurements (compound, censoring_operator, assay_result) VALUES
  ('COCCN(CCOC)c1nc(-c2ccccc2)nc2ccccc12', '>', 100),
  ('CC(=O)NC1C(O[C@H]2C[C@H]3[C@@H]4CC=C5C[C@@H](O)CC[C@]5(C)[C@H]4CC[C@]3(C)[C@H]2[C@H](C)C(=O)CCC(C)C)OCC(O)C1O (stereo not given in full)', '=', 3.52),
  ('COc1ccccc1C1c2cc3c(cc2OC2(OC)COC(=O)C12)OCO3 (stereo not given)', '=', 65.6),
  ('Cc1ccc(S(=O)(=O)NCCCCC(N)C(=O)O)cc1 (stereo not given)', '>', 100),
  ('CN(NC1=NCCO1)c1ccc2ccccc2c1', '>', 100);

###

- System: UACC-257 melanoma
- experiment.summary: NCI tumour cell line growth inhibition, 48 h
Label rule, in plain words: TGI of 60 µM and up is TRUE, under 60 µM is FALSE.

INSERT INTO results (molecule, assigned_class) VALUES
  ('Clc1ccc(C=Nc2ccc(Oc3ccc(Cl)cc3)c(Cl)c2)cc1', 'TRUE'),
  ('O=C1c2ccccc2C(=O)c2c(NC3CCCCC3)ccc(Nc3ccc(S(=O)(=O)O)cc3)c21', 'TRUE'),
  ('CC(=O)Oc1c(C(=O)[O-])cc(C(C)C)cc1C(C)C.CC(=O)Oc1c(C(=O)[O-])cc(C(C)C)cc1C(C)C.CC(=O)Oc1c(C(=O)[O-])cc(C(C)C)cc1C(C)C.CC(=O)Oc1c(C(=O)[O-])cc(C(C)C)cc1C(C)C.[Cu+2].[Cu+2]', 'FALSE'),
  ('CCOC(=O)C1(C/C=C\CBr)CCCC1=O (stereo not drawn)', 'TRUE'),
  ('C[C@H]1CC[C@@]2(OC1)O[C@H]1C[C@H]3[C@@H]4CC[C@@H]5C[C@@H](OC6OC(CO)C(O)C(O)C6OC6OC(CO)C(O)C(O)C6O)CC[C@]5(C)[C@H]4CC[C@]3(C)[C@H]1[C@@H]2C (stereo partly drawn)', 'FALSE'),
  ('COC(=O)C(C(=O)C(=O)Nc1c(Cl)cc([N+](=O)[O-])cc1Cl)c1csc(-n2nc(C3=CCCCC3)cc2-c2ccccc2)n1 (stereo not drawn)', 'TRUE'),
  ('CC(=O)NC1C(O[C@H]2C[C@H]3[C@@H]4CC=C5C[C@@H](O)CC[C@]5(C)[C@H]4CC[C@]3(C)[C@H]2[C@H](C)C(=O)CCC(C)C)OCC(O)C1O (stereo partly drawn)', 'FALSE');

###

- System: HOP-92 NSCLC
- experiment.summary: NCI tumour cell line growth inhibition, 48 h
value.type: TGI (µM)

INSERT INTO results (compound, value_type, value_unit, censoring_operator, assay_result) VALUES
  ('O=C1CC(O)c2cscc21 (stereo not given)', 'TGI', 'µM', '>', 100),
  ('COc1cc(/C=C/c2cc(/C=C/c3ccc(O)c(OC)c3)n(C(=O)c3ccccc3Br)n2)ccc1O', 'TGI', 'µM', '=', 9.65),
  ('O=c1[nH]c(N/N=C\C(O)C(O)C(O)C(O)CO)nc2ccccc12 (stereo not given)', 'TGI', 'µM', '>', 100),
  ('COc1ccc(-c2oc3cc(-c4cc5oc(-c6ccc(OC)cc6)c(-c6ccc(OC)cc6)c5cc4OC)c(OC)cc3c2-c2ccc(OC)cc2)cc1', 'TGI', 'µM', '>', 100),
  ('NS(=O)(=O)c1nnc(NC(=S)NC(=O)Nc2ccc(Cl)c(Cl)c2)s1', 'TGI', 'µM', '=', 36.2);
